# System: LOX IMVI melanoma
# assay: NCI tumour cell line growth inhibition, 48 h
propertyMeasured: GI50

Here are 6 compounds together with their reported answers.
| compound | GI50 |
| --- | --- |
| COc1ccc(Nc2c3ccccc3nc3ccccc23)cc1 | 0.984 µM |
| CC(=O)O[C@]1(C(C)=O)CC[C@H]2[C@@H]3C=C(C)C4=CC(=O)CC[C@]4(C)[C@H]3CC[C@@]21C | > 100 µM |
| C=C1CCC2C(C)(C)CCC[C@]2(C)[C@H]1CO (some centres not stated) | 24.9 µM |
| CC1(C)[C@@H](O[C@@H]2OC[C@@H](O[C@@H]3O[C@H](CO)[C@@H](O)[C@H](O)[C@H]3O[C@@H]3OC[C@@H](O)[C@H](O)[C@H]3O)[C@H](O)[C@H]2O[C@@H]2O[C@H](CO)[C@@H](O)[C@H](O)[C@H]2O)CC[C@]2(C)[C@H]3CC[C@]45OC[C@@]6(CC[C@](C)(C=O)C[C@H]64)[C@H](O)C[C@@]5(C)[C@]3(C)CC[C@@H]12 | 0.924 µM |
| Oc1[nH]c2ccc(Cl)cc2c1/C=c1/ccc2c(c1)N=C(c1ccc(F)cc1)N=2 | 1.63 µM |
| Cc1cc(N(CCNc2ccnc3cc(Cl)ccc23)Cc2ccco2)nc(Cl)n1 | 1.59 µM |

## Task # input compound: N#CSCC1CC(O)(c2ccccc2)CC(c2ccc(F)cc2)O1 (configuration not stated) ; wanted: its GI50
## Result 1.7 µM

----------
# Test system: HOP-62 NSCLC
# assay: NCI tumour cell line growth inhibition, 48 h
Assign TRUE to entries whose TGI meets or exceeds 5 µM; assign FALSE to the rest.

## Task Reported TGI at or above 5 µM? C=C(Br)N(CC)CC
## Result TRUE

## Task Proceed to Cc1cc(C)nc(NS(=O)(=O)c2ccc(Nc3c4ccc(Cl)cc4nc4c(C(=O)Nc5ccc(S(N)(=O)=O)cc5)cccc34)cc2)n1
## Result TRUE

## Task Continue with CCCCCCCCCCCCCC[n+]1ccc2c(C)c3c(c(C)c2c1)c1cc(O)ccc1n3CC
## Result FALSE

## Task Try the compound Cc1cc(C)nc(SC(C)C(=O)N/N=C/c2ccc(OCc3ccccc3)cc2)n1 (configuration not stated)
## Result TRUE

## Task And then O=c1[nH]c(=O)n(C2CC(O)C(CO)O2)cc1C1=NC1 (configuration not stated) , what is it?
## Result TRUE

## Task Also need Cc1cc(Cc2c(F)c(F)c(C(c3cc(C)no3)c3c(F)c(F)c(F)c(F)c3F)c(F)c2F)on1 (configuration not stated) , thanks.
## Result TRUE

## Task Queued: N#CSCC1CC(O)(c2ccccc2)CC(c2ccc(F)cc2)O1 (configuration not stated)
## Result FALSE

----------
Below, each entry is listed alongside its reported TGI.
# Tested on: MDA-MB-435
# assay: NCI tumour cell line growth inhibition, 48 h
All answers are understood in µM, so give the number only.

| compound | experimentalSystem | measValue |
| --- | --- | --- |
| CCCCCCCCCCCCCC[n+]1ccc2c(C)c3c(c(C)c2c1)c1cc(O)ccc1n3CC | MDA-MB-435 | 1.03 |
| CC1OC(OC2C(O[C@H]3CC[C@@]4(C)C(=CC[C@H]5[C@@H]6C[C@@H]7O[C@]8(CC[C@H](C)CN8)[C@@H](C)[C@@H]7[C@@]6(C)CC[C@@H]54)C3)OC(CO)C(O)C2OC2OC(CO)C(O)C(O)C2O)C(O)C(O)C1O (stereo not given in full) | MDA-MB-435 | 50.7 |
| COCOc1c(C(O[Si](C)(C)C(C)(C)C)c2cnc(Sc3ccccc3)n2C)ccc(OC)c1OC (stereo not given) | MDA-MB-435 | 3.26 |
| CCCCCCCCCc1cccc(N2C(N)=NC(N)=NC2(C)C)c1 | MDA-MB-435 | 1.83 |
| Cn1ccnc1C(=O)/C=C/c1ccccc1 | MDA-MB-435 | 10.2 |

The record that follows has no TGI shown yet.
## Task Recorded TGI for CCc1ccc2nc(-c3ccc(O)cc3)sc2c1 with MDA-MB-435, please?
## Result 39.5
